Measured pIC50 by item
Assay: Compound was evaluated for its cytotoxicity against L2987 lung carcinoma cells
Format: functional, cell-based
Details: Homo sapiens
pIC50: −log10 of the molar value.
MEASURE: pIC50

MOLECULE	MEASURE	NUMERIC_RESULT
CC(=O)O[C@H]1C(=O)[C@@]2(C)[C@H]([C@H](OC(=O)c3ccccc3)[C@]3(O)C[C@H](OC(=O)[C@H](OC(=O)C(C)(C)CCSSCC(NC(=O)CCC(N)C(=O)O)C(=O)NCC(=O)O)[C@@H](NC(=O)c4ccccc4)c4ccccc4)C(C)=C1C3(C)C)[C@]1(OC(C)=O)CO[C@@H]1C[C@@H]2O (stereo not given in full)	pIC50	5.00
CC(=O)O[C@H]1C(=O)[C@@]2(C)[C@H]([C@H](OC(=O)c3ccccc3)[C@]3(O)C[C@H](OC(=O)[C@H](OC(=O)C(C)(C)CCSSC[C@H](C)C(=O)N4CCC[C@@H]4C(=O)O)[C@@H](NC(=O)c4ccccc4)c4ccccc4)C(C)=C1C3(C)C)[C@]1(OC(C)=O)CO[C@@H]1C[C@@H]2O	pIC50	3.89
CC(=O)O[C@H]1C(=O)[C@@]2(C)[C@H]([C@H](OC(=O)c3ccccc3)[C@]3(O)C[C@H](OC(=O)[C@H](O)[C@@H](NC(=O)c4ccccc4)c4ccccc4)C(C)=C1C3(C)C)[C@]1(OC(C)=O)CO[C@@H]1C[C@@H]2O	pIC50	6.70
CC(=O)O[C@H]1C(=O)[C@@]2(C)[C@H]([C@H](OC(=O)c3ccccc3)[C@]3(O)C[C@H](OC(=O)[C@H](OC(=O)C(C)(C)CCSSc4ccccn4)[C@@H](NC(=O)c4ccccc4)c4ccccc4)C(C)=C1C3(C)C)[C@]1(OC(C)=O)CO[C@@H]1C[C@@H]2O	pIC50	5.21
CC(=O)O[C@H]1C(=O)[C@@]2(C)[C@H]([C@H](OC(=O)c3ccccc3)[C@]3(O)C[C@H](OC(=O)[C@H](OC(=O)C(C)(C)CCSSC4OC(CO)C(O)C(O)C4O)C(NC(=O)c4ccccc4)c4ccccc4)C(C)=C1C3(C)C)[C@]1(OC(C)=O)CO[C@@H]1C[C@@H]2O (stereo not given in full)	pIC50	5.24

These measurements were taken from ChEMBL document CHEMBL1135012.
